Assay: Half life in rat at 3 mg/kg, iv and 10 mg/kg, po
Assay type: ADME, organism-based
Conditions: in vivo
Reported half-life is given for each of the following compounds.
Could you give me the number in h? Just the number is fine.

Check out these entries, answers already filled in.
CN1CCN(c2cc3c(Nc4ccc(F)cc4F)c(C(N)=O)cnc3cc2F)CC1; 1.1
COc1cc2ncc(C(N)=O)c(Nc3ccc(Cl)cc3Cl)c2cc1N1CCN(C)CC1; 1.7
CN1CCN(c2ccc3ncc(C(N)=O)c(Nc4ccc(F)cc4F)c3c2)CC1; 1.9

Prompt line: Endpoint output: half-life of CCOc1cc2ncc(C(N)=O)c(Nc3cccc(Cl)c3Cl)c2cc1N1CCN(C(C)C)CC1 . Value?
Response line: 1.2

Prompt line: Endpoint output: half-life of CCOc1cc2ncc(C(N)=O)c(Nc3cccc(Cl)c3Cl)c2cc1N1CCN(C(=O)CO)CC1 . Value?
Response line: 0.66

Prompt line: Endpoint output: half-life of CCOc1cc2ncc(C(N)=O)c(Nc3ccc(F)cc3F)c2cc1N1CCCN(C)CC1 . Value?
Response line: 6.6

Prompt line: Endpoint output: half-life of CCOc1cc2ncc(C(N)=O)c(Nc3ccc(Cl)c(Cl)c3)c2cc1N1CCN(C)CC1 . Value?
Response line: 1.2

Prompt line: Endpoint output: half-life of CCOc1cc2ncc(C(N)=O)c(Nc3cccc(Cl)c3F)c2cc1N1CCN(C)CC1 . Value?
Response line: 1.1

Prompt line: Endpoint output: half-life of COc1cc2ncc(C(N)=O)c(Nc3ccc(Cl)c(Cl)c3)c2cc1N1CCN(C)CC1 . Value?
Response line: 1.2
